Assay: BSK_3C_Vis: BioMAP Diversity Plus: 3C Assay for Morphology Visualization (AID 2283025);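 note: fitted both ways so gain or loss versus DMSO counts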
Details: primary human endothelial cells (HUVEC)
Calls of active or inactive are those of the source. Rule for the calls: active = hit-call score of the fitted dose curve at least 0.9, where 1 is the maximum; inactive = score below 0.9.
Pick one: active, inactive

Problem: State the result this test recorded for `IC(I)I` .
Result: inactive

Problem: Which outcome did this test record for the molecule `CN(c1nccc(=O)[nH]1)C1CCN(c2nc3ccccc3n2Cc2ccc(F)cc2)CC1` ?
Result: inactive

Problem: Per the records of this test, what outcome belongs to `O=C1OC2(c3ccccc31)c1ccc(O)c(Br)c1Oc1c2ccc(O)c1Br` ?
Result: active

Problem: Query: recorded result category for CC(=O)C1(C)CC2=C(CCCC2(C)C)CC1C (stereo unspecified) in this test
Result: active

Problem: How did this test come out for `CC(C)(C)CC(C)(C)c1ccc(OCCOCC[N+](C)(C)Cc2ccccc2)cc1` ?
Result: active

Problem: I'd appreciate the recorded outcome for `CCCCCC(C=O)=Cc1ccccc1` from this test.
Result: active

###

Read-out: urokinase plasminogen activator (uPA), PLAU (gene 5328)
Assay: BSK_BE3C_uPA: BioMAP Diversity Plus: BE3C Assay for urokinase plasminogen activator (uPA) Biomarker Activity (AID 2283038)
Details: primary human bronchial epithelial cells; actives raise or lower the signal
Active and inactive are the calls of the source. Rule for the calls: active = hit-call score of the fitted dose curve at least 0.9, where 1 is the maximum; inactive = score below 0.9.
Hello, when you answer, please use one of the following outcomes: active, inactive

Problem: I would be grateful if you could indicate the recorded call for `CC(=O)Nc1ccc(C(=O)CCl)cc1` .
Result: inactive

Problem: I'd appreciate the recorded outcome for `C=C(C)C(=O)OCCOCCOCCOC(=O)C(=C)C` from this test.
Result: inactive

Problem: Please indicate how the test categorized `c1ccc(Oc2ccccc2)cc1` .
Result: inactive

Problem: Assay result, entry `c1ccc2cc(Nc3ccc(Nc4ccc5ccccc5c4)cc3)ccc2c1` — outcome?
Result: inactive

Problem: # fetch the recorded call for CC(C=O)Cc1ccc(C(C)(C)C)cc1 (stereo unspecified) here
Result: inactive

Problem: Please state the recorded outcome for this molecule: `O=C1OC2(c3ccccc31)c1ccc(O)c(Br)c1Oc1c2ccc(O)c1Br`
Result: inactive

Problem: Returns: the outcome recorded for `CCN(CC)C(=O)N(CC)CC` in this assay.
Result: inactive

Problem: How did this test come out for `O=C1OC[C@H](Cc2cccc(O)c2)[C@H]1Cc1cccc(O)c1` ?
Result: inactive

Problem: Write down the call the test reported for this molecule. Item: CC(CN=Cc1ccccc1O)N=Cc1ccccc1O (stereo unspecified)
Result: inactive

Problem: Test call, this molecule: C1=CC2C3C=CC(C3)C2C1 (stereo unspecified)
Result: inactive

Problem: Hi, do you know how `O=C1c2ccccc2C(=O)c2c(O)ccc(O)c21` came out in this test?
Result: inactive

Problem: Hi, sorry to bother you, what did the test record for `C=C(C)C(=O)OCC(CC)(COC(=O)C(=C)C)COC(=O)C(=C)C` ?
Result: inactive

Problem: Short answer needed: outcome of this test for `Oc1c(Cl)cc(Cl)c(Cl)c1Cc1c(O)c(Cl)cc(Cl)c1Cl` ?
Result: inactive

Problem: Hi team, can someone confirm the assay call for CCC(C)c1cc([N+](=O)[O-])cc([N+](=O)[O-])c1OC(=O)OC(C)C (stereo unspecified) ?
Result: active

Problem: State the result this test recorded for `CCCCN(CCCC)C(=O)N(CCCC)CCCC` .
Result: active

Problem: State the result this test recorded for CC(=O)C1(C)CC2=C(CCCC2(C)C)CC1C (stereo unspecified) .
Result: active

Problem: Record lookup: outcome of this test for `CN(C)C(=O)Nc1ccc(Oc2ccc(Cl)cc2)cc1` ?
Result: inactive

Problem: For this molecule, state the assay outcome: `CCCCOC(=O)CCCCCCCC(=O)OCCCC`
Result: inactive

Problem: Per the assay record, what outcome was assigned to `Clc1cc(Cl)c(-c2c(Cl)c(Cl)cc(Cl)c2Cl)cc1Cl` ?
Result: inactive

Problem: Which outcome did this test record for the molecule `COc1ccc(OC)c(N=Nc2c(O)ccc3ccccc23)c1` ?
Result: inactive

Problem: How did this test come out for CCCCCCC(CO)CCCC (stereo unspecified) ?
Result: inactive

Problem: Each molecule tested received a call. Report the one for `CCCCCCCCCCCCCCCC(=O)OC/C=C(C)/C=C/C=C(C)/C=C/C1=C(C)CCCC1(C)C` .
Result: inactive

Problem: Entry `COc1ccc(CCN2CCC(Nc3nc4ccccc4n3Cc3ccc(F)cc3)CC2)cc1` : call = ?
Result: inactive

Problem: Could you please tell me the result logged for `CC(C)(N=C=O)c1cccc(C(C)(C)N=C=O)c1` in this assay?
Result: inactive

Problem: Called result for `CC=Cc1ccc(OCC)c(O)c1`
Result: inactive

Problem: Outcome logged for `COc1cc(Cl)c(OC)cc1N` in this assay:
Result: inactive

All figures here come from PubChem BioAssay (EPA / NIEHS).
